target: UniProtKB P55201; details: Compound concentration 20.0 uM, Protein concentration 2.0 uM, Result type QC Liability
Sequence (P55201 whole entry): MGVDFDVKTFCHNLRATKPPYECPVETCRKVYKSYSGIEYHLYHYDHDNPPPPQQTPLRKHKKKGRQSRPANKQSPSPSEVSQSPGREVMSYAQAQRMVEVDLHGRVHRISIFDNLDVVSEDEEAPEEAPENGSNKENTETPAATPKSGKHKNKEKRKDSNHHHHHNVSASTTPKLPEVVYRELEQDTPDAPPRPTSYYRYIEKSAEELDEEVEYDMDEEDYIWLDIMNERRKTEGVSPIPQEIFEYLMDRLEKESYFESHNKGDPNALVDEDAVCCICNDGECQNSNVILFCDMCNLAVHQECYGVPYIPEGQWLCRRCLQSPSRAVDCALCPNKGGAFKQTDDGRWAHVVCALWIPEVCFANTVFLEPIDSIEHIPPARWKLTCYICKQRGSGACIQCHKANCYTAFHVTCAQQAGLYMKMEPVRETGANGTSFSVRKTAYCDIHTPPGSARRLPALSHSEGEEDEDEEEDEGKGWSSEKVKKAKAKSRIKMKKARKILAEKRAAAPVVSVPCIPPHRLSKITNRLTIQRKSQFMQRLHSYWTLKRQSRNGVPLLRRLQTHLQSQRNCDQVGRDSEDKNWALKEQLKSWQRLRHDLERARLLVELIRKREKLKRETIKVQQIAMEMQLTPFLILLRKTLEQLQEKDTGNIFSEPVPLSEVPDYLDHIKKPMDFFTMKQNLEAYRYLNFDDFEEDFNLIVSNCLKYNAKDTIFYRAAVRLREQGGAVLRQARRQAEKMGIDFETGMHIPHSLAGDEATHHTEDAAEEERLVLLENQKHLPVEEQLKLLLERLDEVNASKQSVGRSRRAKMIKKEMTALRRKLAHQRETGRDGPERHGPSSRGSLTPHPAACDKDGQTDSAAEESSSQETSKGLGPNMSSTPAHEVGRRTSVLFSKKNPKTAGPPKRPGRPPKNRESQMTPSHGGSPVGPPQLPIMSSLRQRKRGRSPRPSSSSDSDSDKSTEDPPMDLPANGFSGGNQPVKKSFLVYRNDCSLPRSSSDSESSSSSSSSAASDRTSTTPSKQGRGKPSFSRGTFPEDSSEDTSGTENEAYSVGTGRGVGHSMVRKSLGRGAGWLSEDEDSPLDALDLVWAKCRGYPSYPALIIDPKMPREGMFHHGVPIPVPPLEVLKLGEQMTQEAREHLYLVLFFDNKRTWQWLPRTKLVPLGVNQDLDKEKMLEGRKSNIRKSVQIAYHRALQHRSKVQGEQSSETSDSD
Entries and their ΔTm values follow.

- compound: "CNC(=O)c1cc(C(=O)N[C@H]2[C@@H]3COC[C@@H]32)cc2c1O[C@H](CF)[C@H]2c1ccccc1"
  ΔTm (°C): -0.69
- compound: "C[C@H]1CN(C2COC2)CCN1c1ccc(Nc2cc(-c3ccnc(N4CCn5c(cc6c5CC(C)(C)C6)C4=O)c3CO)cn(C)c2=O)nc1"
  ΔTm (°C): -2.12
- compound: "COc1cc(C(=O)NC2CCN(C)CC2)ccc1Nc1ncc2c(n1)N(C1CCCC1)CC(F)(F)C(=O)N2C"
  ΔTm (°C): 1.14
- compound: "CCN1C(=O)C(c2cccc(C(=O)O)c2)C(=O)N(c2ccccc2)c2cc(C(F)(F)F)ccc21 (stereo unspecified)"
  ΔTm (°C): -1.55
- compound: "CN1CCCN(C(=O)c2cccc(-c3ccc(/C=C4/C(=O)Nc5ccc(Cl)cc54)o3)c2)CC1"
  ΔTm (°C): -2.53
- compound: "CN1CCC(F)(Cn2cnc(-c3ccc(F)cn3)c2-c2ccnc3[nH]ccc23)CC1"
  ΔTm (°C): -0.88
- compound: "CC(C)(O)[C@H](F)CN1Cc2cc(NC(=O)c3cnn4cccnc34)c(N3CCOCC3)cc2C1=O"
  ΔTm (°C): -1.78
- compound: "COc1cccc(CNc2ccc(S(=O)(=O)Nc3nc4ccccc4s3)cc2)c1O"
  ΔTm (°C): -0.69
- compound: "CN1C(=O)c2c(nn(Cc3ccc(-c4cccc(F)n4)cc3)c2Nc2ccccc2)N2C1=N[C@@H]1CCC[C@@H]12"
  ΔTm (°C): -3.07
- compound: "Cc1cc2c(-c3ccco3)cnc(N[C@H]3CCN(C)C[C@@H]3C(=O)NC3CCCCC3)c2[nH]c1=O"
  ΔTm (°C): -1.73
- compound: "CCN(C)S(=O)(=O)Nc1cccc(-c2ccc3c(NC(=O)C4CC4)n[nH]c3c2)c1"
  ΔTm (°C): -0.56
